target: CFTR-mediated chloride transport (Homo sapiens); assay: Corrector Assay A - membrane potential dye assay (enteroid cells); conditions: read-out: Corrector Assay A EC50; human intestinal enteroid cells, 18-24 h incubation; acute 10 μM forskolin + 300 nM ivacaftor
ASSAY_ENDPOINT: EC50

Here's what some known entries look like.
MOLECULE | SYSTEM_NAME | READING
CC(C)(C)c1cccc(C2CC[C@@H]3CN(c4nc(C(C)(C)C)ccc4C(=O)NS(=O)(=O)c4cccc(n4)N2)C(C)(C)C3)n1 (single isomer, unassigned) [Compound 179] | CFTR-mediated chloride transport (Homo sapiens) | < 1 µM
CC(C)(C)COc1cccc(-c2ccc3c(n2)N2C[C@@H](CC[C@H](c4ccccn4)Nc4cccc(n4)S(=O)(=O)NC3=O)CC2(C)C)n1 | CFTR-mediated chloride transport (Homo sapiens) | < 1 µM
CC(O)CC1CC[C@@H]2CN(c3nc(C(C)(C)C)ccc3C(=O)NS(=O)(=O)c3cccc(n3)N1)C(C)(C)C2 (single isomer, unassigned) [Compound 22] | CFTR-mediated chloride transport (Homo sapiens) | < 1 µM

input: Report measured EC50; entry is CC1(C)C[C@@H]2CCC(c3ccccc3)Nc3cccc(n3)S(=O)(=O)NC(=O)c3ccc(-n4ccc(OCCC5C6(CC6)C56CC6)n4)nc3N1C2 (single isomer, unassigned) [Compound 364]
output: < 1 µM

input: Report measured EC50; entry is CC(C)(C)c1ccc2c(n1)N1C[C@@H](CCC(c3cc(CCCN)ccn3)Nc3cccc(n3)S(=O)(=O)NC2=O)CC1(C)C (single isomer, unassigned) [Compound 110]
output: > 3 µM
